- Protocol Notes: Absorption characteristics: transmission spectrum of near-infrared absorbing layer of NIR filter (UV-visible spectrophotometer)
- Format: physicochemical
- Experimental Setup: transparent resin polycarbonate SP3810, nd(B) 1.63, film thickness 1.0 μm
Quantity Name: Is value (nd(B)×(λa-λc))

{"Molecule": "CCCC(CCC)C(=O)Nc1cc2c(cc1C1=C([O-])C(=c3cc4c(cc3NC(=O)C(CCC)CCC)=[N+](C)C(C)C4(C)C)C1=O)C(C)(C)C(C)N2C (stereo not drawn)", "Is value (nd(B)×(λa-λc))": 112.8}
{"Molecule": "CCCCCCCCCCCC(=O)Nc1cc2c(cc1C1=C([O-])C(=c3cc4c(cc3NC(=O)CCCCCCCCCCC)=[N+](C)C(C)C4(C)C)C1=O)C(C)(C)C(C)N2C (stereo not drawn) [Example A11-25, reference compound]", "Is value (nd(B)×(λa-λc))": 122.6}
{"Molecule": "CC(CCC(C(=O)Nc1cc2c(cc1C1=C([O-])C(=c3cc4c(cc3NC(=O)C(CCC(C)CC(C)(C)C)C(C)CC(C)(C)C)=[N+](C)C(C)C4(C)C)C1=O)C(C)(C)C(C)N2C)C(C)CC(C)(C)C)CC(C)(C)C (stereo not drawn)", "Is value (nd(B)×(λa-λc))": 112.8}
